Measured values drawn from patent US20250367129A1 for this set.

assay: LNP size and size distribution by dynamic light scattering (WISC HA modFlu mRNA LNPs); assay type: physicochemical; conditions: LNP with WISC HA modFlu mRNA; DLS
property name: PDI
Answers are plain numbers.

Worked set:
>>> result_number("CCCCCCCC(CCCCCCC)C(=O)OCC(COC(=O)C(CCCCCCC)CCCCCCC)N1CCC2(CCN(CCCCO)CC2)CC1")
0.07
>>> result_number("CCCCCCCC(CCCCCCC)C(=O)O[C@@H]1CC2(CCN(CCCCO)CC2)C[C@H]1OC(=O)C(CCCCCCC)CCCCCCC (racemic)")
0.03
>>> result_number("CCCCCCCC(CCCCCCC)C(=O)OCC(COC(=O)C(CCCCCCC)CCCCCCC)C1CCC2(CC1)CCN(CCCCO)CC2")
0.06

Next item in the queue.
Output measured PDI for this item: CCCCCCCC(CCCCCCC)C(=O)OCC1(COC(=O)C(CCCCCCC)CCCCCCC)CCC2(CCN(CCCCO)CC2)CC1
0.04
